Tested on: 898857-211-R-J1-PDC complex spheroids, growth % test/control
measurement_notes: Anticancer human tumor 898857-211-R-J1-PDC patient-derived melanoma cell line growth inhibition [RAS]
condition_details: curve of first compound; second compound 3.16 µM
quantity_measured: pIC50
Convention used: pIC50 is expressed as -log10 of the molar concentration.

Known pIC50 results, listed for orientation:
stdin: Please report the measured pIC50 for CCC(CC)c1cc(NC2CCC(N)C2)n2nccc2n1 (stereo not given) + C#Cc1c(F)ccc2cc(O)cc(-c3ncc4c(N5CC6CCC(C5)N6)nc(OCC56CCCN5CC(F)C6)nc4c3F)c12
stdout: 5.96

stdin: Consider the compound Nc1ccn(C2OC(CO)C(O)C2(F)F)c(=O)n1 (stereo not given) + C#Cc1c(F)ccc2cc(O)cc(-c3ncc4c(N5CC6CCC(C5)N6)nc(OCC56CCCN5CC(F)C6)nc4c3F)c12 . State its measured pIC50.
stdout: 8.14

stdin: Kindly indicate its recorded pIC50. Item: CCN1CCN(Cc2ccc(Nc3ncc(F)c(-c4cc(F)c5nc(C)n(C(C)C)c5c4)n3)nc2)CC1 + C#Cc1c(F)ccc2cc(O)cc(-c3ncc4c(N5CC6CCC(C5)N6)nc(OCC56CCCN5CC(F)C6)nc4c3F)c12
stdout: 6.71

stdin: Find the measured pIC50 of CC(C)n1nc(-c2ccc3oc(N)nc3c2)c2c(N)ncnc21 + C#Cc1c(F)ccc2cc(O)cc(-c3ncc4c(N5CC6CCC(C5)N6)nc(OCC56CCCN5CC(F)C6)nc4c3F)c12 and report it.
stdout: 7.40

stdin: Quickly give me recorded pIC50 for CC1(C)CCC(Nc2ncc(C(F)(F)F)c(-c3c[nH]c4c(P(C)(C)=O)c(C#N)ccc34)n2)CN1 (stereo not given) + C#Cc1c(F)ccc2cc(O)cc(-c3ncc4c(N5CC6CCC(C5)N6)nc(OCC56CCCN5CC(F)C6)nc4c3F)c12
stdout: 8.27

stdin: For the compound O=C(c1ccc(F)c(F)c1Nc1ccc(I)cc1F)N1CC(O)([C@@H]2CCCCN2)C1 + C#Cc1c(F)ccc2cc(O)cc(-c3ncc4c(N5CC6CCC(C5)N6)nc(OCC56CCCN5CC(F)C6)nc4c3F)c12 , give its reported pIC50.
stdout: 8.29

// next entry
stdin: Output pIC50 of CCc1c2c(nc3ccc(O)cc13)-c1cc3c(c(=O)n1C2)COC(=O)[C@]3(O)CC + C#Cc1c(F)ccc2cc(O)cc(-c3ncc4c(N5CC6CCC(C5)N6)nc(OCC56CCCN5CC(F)C6)nc4c3F)c12
stdout: 8.27

###

Tested on: 898857-211-R-J1-PDC complex spheroids, growth % test/control
measurement_notes: Anticancer human tumor 898857-211-R-J1-PDC cell line growth inhibition [RAS]; active means viability on the fitted dose curve at most 10% of control; inactive means the rest;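 note: spheroids exposed to compound for seven days before readout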
condition_details: second compound 0.316 µM; first compound 0.316 µM
Give one outcome, nothing more. List: active, inactive

Worked set:
stdin: Could you check what this test reported for Nc1ccn(C2OC(CO)C(O)C2(F)F)c(=O)n1 (stereo not given) + C=CC(=O)N1CCN(c2nc(OCC3CCCN3C)nc3c(F)c(-c4nc(N)cc(C)c4C(F)(F)F)c(Cl)cc23)C(C)C1 ?
stdout: active

stdin: Look up the recorded call for CCC(CC)c1cc(NC2CCC(N)C2)n2nccc2n1 (stereo not given) + C#Cc1c(F)ccc2cc(O)cc(-c3ncc4c(N5CC6CCC(C5)N6)nc(OCC56CCCN5CC(F)C6)nc4c3F)c12 in this test.
stdout: inactive

stdin: Returns: the outcome recorded for Cc1nc(N2CCC3(CC2)COC(C)C3N)c(CO)nc1Sc1ccnc(N)c1Cl (stereo not given) + C#Cc1c(F)ccc2cc(O)cc(-c3ncc4c(N5CC6CCC(C5)N6)nc(OCC56CCCN5CC(F)C6)nc4c3F)c12 in this assay.
stdout: inactive

stdin: Look up the recorded call for O=C(c1ccc(F)c(F)c1Nc1ccc(I)cc1F)N1CC(O)([C@@H]2CCCCN2)C1 + C#Cc1c(F)ccc2cc(O)cc(-c3ncc4c(N5CC6CCC(C5)N6)nc(OCC56CCCN5CC(F)C6)nc4c3F)c12 in this test.
stdout: inactive

stdin: Per the records of this test, what outcome belongs to C=CC(=O)Nc1cc(Nc2nccc(-c3cn(C)c4ccccc34)n2)c(OC)cc1N(C)CCN(C)C + C#Cc1c(F)ccc2cc(O)cc(-c3ncc4c(N5CC6CCC(C5)N6)nc(OCC56CCCN5CC(F)C6)nc4c3F)c12 ?
stdout: inactive

Now for a further compound.
stdin: Recorded test call requested for CC1(O)CCCC1n1c(=O)c(C(F)F)cc2cnc(NC3CCN(S(C)(=O)=O)CC3)nc21 (stereo not given) + C=CC(=O)N1CCN(c2nc(OCC3CCCN3C)nc3c(F)c(-c4nc(N)cc(C)c4C(F)(F)F)c(Cl)cc23)C(C)C1
stdout: inactive

Data credit: PubChem BioAssay AID2060882
